Each entry below carries its reported T/C.
tested on: P388 leukemia ip, CD2F1 mice, survival T/C; test: NCI In Vivo Anticancer Drug Screen. Data for tumor model P388 Leukemia (intraperitoneal) in CD2F1 (CDF1) mice; settings: endpoint: median survival time; dose: 12.5 mg/kg/injection; schedule: Q01DX005 (ip); vehicle: saline with Tween-80; higher = longer survival
Toxic doses and inconclusive results are not listed.
attribute-measured: T/C

compound	result
N#CN(Cc1ccccc1)Cc1ccccc1.[Br][Sn]([c]1ccccc1)([c]1ccccc1)[c]1ccccc1	91 % of control
CC(C)c1nnc2cc3oc4ccccc4c3cc2c1N	96 % of control
Cc1cccc(NCc2ccncc2)n1	102 % of control
C/C(=N\Nc1nc2ccccc2s1)c1ccccn1	98 % of control
COc1ccc2nc(N/N=C/c3cccc(C)n3)cc(C)c2c1	100 % of control
CCC(=O)OCC1OC(OC2c3cc4c(cc3C(c3cc(OC)c(OC)c(OC)c3)C3C(=O)OCC23)OCO4)C(OC(=O)CC)C(OC(=O)CC)C1OC(=O)CC (stereo not given)	98 % of control
COc1ccc(S(=O)(=O)NNS(=O)(=O)c2ccc(OC)c(OC)c2)cc1OC	95 % of control
C/C(=N\NC(=S)N1CCC(C)CC1)c1nccs1	106 % of control
O=Cc1cc(CCl)ccc1O	103 % of control
O=C(c1ccc([N+](=O)[O-])cc1)c1cnc2nc(-c3ccccc3)c(-c3ccccc3)nn12	99 % of control
